Where do the numbers come from? From PubChem BioAssay.

Assay: TOR pathway CIT2 reporter hit retest – S. cerevisiae, GFP fusion, cherry picks, mother/daughter gates, confirmation (AID 2274)
Details: S. cerevisiae CIT2-GFP strain, flow cytometry, 3 h; at 10 µM; stronger effect = higher value

[
  {
    "COMPOUND": "COCCN1C(=O)/C(=C/c2ccc(N3CCCC3)cc2C)SC1=S",
    "UNIT_TEXT": "%",
    "GFP response, % of DMSO": 112
  },
  {
    "COMPOUND": "N#C/C(C(N)=O)=c1/ccc2c(c1)N1C3=C(CCCC3)CC3CCCCC31N=2 (centres undefined)",
    "UNIT_TEXT": "%",
    "GFP response, % of DMSO": 88.9
  },
  {
    "COMPOUND": "O=C(C#Cc1cccc([N+](=O)[O-])c1)c1ccccc1",
    "UNIT_TEXT": "%",
    "GFP response, % of DMSO": 101
  },
  {
    "COMPOUND": "CC(=O)[C@H]1CC[C@H]2[C@@H]3CCC4=CC(=O)CC[C@]4(C)[C@H]3CC[C@]12C",
    "UNIT_TEXT": "%",
    "GFP response, % of DMSO": 97.8
  },
  {
    "COMPOUND": "C[C@]12CC[C@@H]3c4ccc(O)cc4C(=O)C[C@H]3[C@@H]1CC[C@@H]2O",
    "UNIT_TEXT": "%",
    "GFP response, % of DMSO": 111
  },
  {
    "COMPOUND": "N=c1nc(N2CCCCC2)cc(N)n1O",
    "UNIT_TEXT": "%",
    "GFP response, % of DMSO": 99.7
  },
  {
    "COMPOUND": "CCOc1nnc(C)c2c(C)n(-c3cccc(OC)c3)nc12",
    "UNIT_TEXT": "%",
    "GFP response, % of DMSO": 108
  },
  {
    "COMPOUND": "CC(C)(C)c1ccc(C(=O)CC(Sc2ccc(Cl)cc2)C(=O)O)cc1 (centres undefined)",
    "UNIT_TEXT": "%",
    "GFP response, % of DMSO": 79.7
  },
  {
    "COMPOUND": "C[C@H]1C[C@@H]2[C@H]([C@@H](O)C[C@@]3(C)[C@H]2CC[C@]3(O)C(=O)CO)[C@@]2(C)C=CC(=O)C=C12",
    "UNIT_TEXT": "%",
    "GFP response, % of DMSO": 99.7
  },
  {
    "COMPOUND": "Cc1ccc(SC(CC(=O)c2ccc(C(C)(C)C)cc2)C(=O)O)cc1 (centres undefined)",
    "UNIT_TEXT": "%",
    "GFP response, % of DMSO": 92.2
  },
  {
    "COMPOUND": "CS(=O)(=O)Nc1cccc(C(=O)CC2(O)C(=O)Nc3ccc(Br)cc32)c1 (centres undefined)",
    "UNIT_TEXT": "%",
    "GFP response, % of DMSO": 100
  },
  {
    "COMPOUND": "CC(NCCc1ccc(O)cc1)C(O)c1ccc(O)cc1 (centres undefined)",
    "UNIT_TEXT": "%",
    "GFP response, % of DMSO": 101
  },
  {
    "COMPOUND": "NS(=O)(=O)c1cc2c(cc1C(F)(F)F)NC(Cc1ccccc1)NS2(=O)=O (centres undefined)",
    "UNIT_TEXT": "%",
    "GFP response, % of DMSO": 102
  },
  {
    "COMPOUND": "c1ccc2c(c1)CCOC2CNCCCN1CCCCC1 (centres undefined)",
    "UNIT_TEXT": "%",
    "GFP response, % of DMSO": 108
  },
  {
    "COMPOUND": "CC(=O)[C@@]1(O)CC[C@H]2[C@@H]3C[C@H](C)C4=CC(=O)CC[C@]4(C)[C@H]3CC[C@@]21C",
    "UNIT_TEXT": "%",
    "GFP response, % of DMSO": 98.3
  },
  {
    "COMPOUND": "O=C(O)Cc1ccc(-c2ccccc2)cc1",
    "UNIT_TEXT": "%",
    "GFP response, % of DMSO": 102
  },
  {
    "COMPOUND": "O=C(O)CCNC(=O)c1ccccc1",
    "UNIT_TEXT": "%",
    "GFP response, % of DMSO": 97.8
  },
  {
    "COMPOUND": "CC(C)(C)C(=O)/C=c1\\s/c(=C\\c2ccc(-c3ccc([N+](=O)[O-])cc3)o2)c(=O)n1CC(=O)NC(N)=O",
    "UNIT_TEXT": "%",
    "GFP response, % of DMSO": 99.7
  },
  {
    "COMPOUND": "C[C@]12CCC(=O)C=C1CC[C@@H]1[C@@H]2[C@@H](O)C[C@@]2(C)[C@H]1CC[C@]2(O)C(=O)CO",
    "UNIT_TEXT": "%",
    "GFP response, % of DMSO": 104
  }
]
